The reported numbers originate from patent US8618046B2.

Tested on: recombinant GST-CETP
Assay: Anti-protein ELISA of sera of immunised mice, plates coated with recombinant GST-CETP
Assay type: in vivo
Conditions: FIG. 12a; sera of immunised mice
Where no end group is shown, it is not given here.
Parameter class (string): assigned from measured ELISA signal, recombinant GST-CETP. Ranges: bottom range = under 0.5, center range = from 0.5 up to 0.7, top range = 0.7 and over

[[record]]
substance = "p4361-KLH: C-FGFPAHVFIDWLQSLS coupled to KLH (CFGFPAHVFIDWLQSLS; also: coupled to KLH)"
assigned_label = "top range"

[[record]]
substance = "p4359-KLH: C-FGFPAHIIIDWLQSLS coupled to KLH (CFGFPAHIIIDWLQSLS; also: coupled to KLH)"
assigned_label = "top range"

[[record]]
substance = "p4324-KLH: C-FGFPSHLIIDWAQSLS coupled to KLH (CFGFPSHLIIDWAQSLS; also: coupled to KLH)"
assigned_label = "center range"

[[record]]
substance = "p4352-KLH: C-FGFPAHVSIDWLQSIS coupled to KLH (CFGFPAHVSIDWLQSIS; also: coupled to KLH)"
assigned_label = "bottom range"

[[record]]
substance = "p4353-KLH: C-FGFPAHVSIDWLQSLT coupled to KLH (CFGFPAHVSIDWLQSLT; also: coupled to KLH)"
assigned_label = "center range"

[[record]]
substance = "p4347-KLH: C-FGFPAHVSIDWLQLLS coupled to KLH (CFGFPAHVSIDWLQLLS; also: coupled to KLH)"
assigned_label = "bottom range"

[[record]]
substance = "p4341-KLH: C-WGFPAHVSIDWLQSLS coupled to KLH (CWGFPAHVSIDWLQSLS; also: coupled to KLH)"
assigned_label = "bottom range"


---

System: monoclonal antibody “Frida”
Assay: In vitro inhibition (competition) ELISA with mAb Frida on coated original CETP epitope
Assay type: binding, mouse
Conditions: FIG. 18b; coat 1 μM 4073 peptide; detection αIgG1; column without head
MEASURE: inhibition ELISA signal, first value column

[[record]]
substance = "C-FGFPAHVFIDWLQ (N-terminal cysteine; CETP mimotope) [p4631]"
result = 2.111

[[record]]
substance = "C-DFGFPAHVFIDWLQSLN (N-terminal cysteine; CETP mimotope) [p4818]"
result = 0.332

[[record]]
substance = "C-PAHVYIDWLQSLS (N-terminal cysteine; CETP mimotope) [p4629]"
result = 0.313

[[record]]
substance = "C-FGFPAHVYIDWLQ (N-terminal cysteine; CETP mimotope) [p4630]"
result = 2.131

[[record]]
substance = "FGFPAHVYIDWLQSLS-C (C-terminal cysteine; CETP mimotope) [p5067]"
result = 0.563

[[record]]
substance = "C-PSHLIIDWLQ (N-terminal cysteine; CETP mimotope) [p4819]"
result = 2.226

[[record]]
substance = "FGFPAHVFIDWLQSLN-C [p5068]"
result = 0.757

[[record]]
substance = "C-DFGFPAHVLIDWLQSLN (N-terminal cysteine; CETP mimotope) [p4990]"
result = 0.263

[[record]]
substance = "C-DFGFPSHLIIDWLQSLS (N-terminal cysteine; CETP mimotope) [p4642]"
result = 0.171

[[record]]
substance = "C-PAHVFIDWLQ (N-terminal cysteine; CETP mimotope) [p4820]"
result = 2.310

[[record]]
substance = "C-DFGFPAHVTIDWLQSLN (N-terminal cysteine; CETP mimotope) [p4989]"
result = 0.932

[[record]]
substance = "FGFPEHLLVDFLQSLS-C (C-terminal Cys; CETP mimotope) [p1208, positive control peptide, reference compound]"
result = 0.264

